Entries and their IC50
Molecular target: human Cereblon WT GST-tagged protein (Homo sapiens, UniProt Q96SW2)
Construct: purchased CISBIO 64BDCRBNPEH
Sequence (Q96SW2 whole entry): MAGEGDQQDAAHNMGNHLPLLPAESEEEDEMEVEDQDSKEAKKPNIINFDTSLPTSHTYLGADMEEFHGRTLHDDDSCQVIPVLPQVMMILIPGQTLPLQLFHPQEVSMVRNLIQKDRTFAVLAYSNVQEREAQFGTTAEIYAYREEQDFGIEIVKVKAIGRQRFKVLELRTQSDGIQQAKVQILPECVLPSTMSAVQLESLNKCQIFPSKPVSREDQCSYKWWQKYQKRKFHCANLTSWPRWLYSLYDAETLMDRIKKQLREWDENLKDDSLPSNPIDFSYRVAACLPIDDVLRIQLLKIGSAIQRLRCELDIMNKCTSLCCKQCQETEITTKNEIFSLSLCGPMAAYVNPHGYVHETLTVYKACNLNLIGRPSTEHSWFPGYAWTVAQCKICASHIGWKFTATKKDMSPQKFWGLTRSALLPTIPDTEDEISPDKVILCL
Assay: CRBN binding, HTRF CEREBLON BINDING kit
Conditions: CRBN binding, HTRF CEREBLON BINDING kit
recorded-metric: IC50

[
  {
    "compound": "O=C1CCN(c2cncc(CN3CCN(c4ccc(-c5cc(F)c6c(c5)C(=O)N(C(C(=O)Nc5nccs5)c5ncn7c5CCC7)C6)cc4)CC3)c2)C(=O)N1 (stereo not drawn)",
    "observed-measurement": "< 500 nM"
  },
  {
    "compound": "CN(Cc1cncc(C2CCC(=O)NC2=O)c1)C1CCN(c2ccc(-c3cc(F)c4c(c3)C(=O)N(C(C(=O)Nc3nccs3)c3ncn5c3CCC5)C4)cc2)CC1 (stereo not drawn)",
    "observed-measurement": "< 500 nM"
  },
  {
    "compound": "O=C1CCN(c2ccc(CN3C[C@H]4C[C@@H]3CN4c3ccc(-c4cc(F)c5c(c4)C(=O)N(C(C(=O)Nc4nccs4)c4ncn6c4CCC6)C5)cc3)nc2)C(=O)N1 (stereo partly drawn)",
    "observed-measurement": "500 to 1000 nM"
  }
]
